Just for reference, patent US7205433B2 is where these values come from.

PROTOCOL NOTES: Experimental Example 4: comparison of hygroscopicity by weight gain over time (40 to 46% RH)
Type: physicochemical
SETUP CONDITIONS: 24° C., 75 minutes
Overview of recorded weight increase rate (%) for various molecules
Answer format: numeric, % implied, no suffix.

> print(dat)
                                   molecule  unit.descriptor  numeric.value
1  CCOC(=O)[C@H](C)N.CS(=O)(=O)O [L-Ala-OEt MsOH salt, L-alanine ethyl ester methanesulfonate]                %           0.35

Query: Give the reported value of weight increase rate (%) for this record: CCOC(=O)[C@H](C)N.O=S(=O)(O)c1ccccc1 [L-Ala-OEt BsOH salt, L-alanine ethyl ester benzenesulfonate]
Response: 1.05

Query: State its weight increase rate (%): CCOC(=O)[C@H](C)N.O=S(=O)(O)c1ccc(Cl)cc1 [L-Ala-OEt 4-CBS salt]
Response: 2.01

Query: Give the measured weight increase rate (%) for CCOC(=O)[C@H](C)N.Cl [L-Ala-OEt HCl salt, alanine ethyl ester hydrochloride]
Response: 8.82

###

PROTOCOL NOTES: Experimental Example 5: comparison of hygroscopicity by weight gain over time (60 to 66% RH)
Type: physicochemical
SETUP CONDITIONS: 24 EC, 185 minutes
Quick reference for weight increase rate (%) among some molecules
Number in %, nothing else.

> print(dat)
                                   molecule              assay.metric  numeric.value
1  CCOC(=O)[C@H](C)N.CS(=O)(=O)O [L-Ala-OEt MsOH salt, L-alanine ethyl ester methanesulfonate]  weight increase rate (%)           0.48

Query: Look up and state reported weight increase rate (%) for COC(=O)[C@H](C)N.Cl [L-Ala-OMe HCl salt, alanine methyl ester hydrochloride, reference compound]
Response: 17.43

Query: Please report weight increase rate (%) for the following molecule: CCOC(=O)[C@H](C)N.O=S(=O)(O)c1ccc(Cl)cc1 [L-Ala-OEt 4-CBS salt]
Response: 4.94

Query: Identify measured weight increase rate (%) associated with CCOC(=O)[C@H](C)N.O=S(=O)(O)c1ccccc1 [L-Ala-OEt BsOH salt, L-alanine ethyl ester benzenesulfonate]
Response: 2.25

###

PROTOCOL NOTES: Experimental Example 5: comparison of hygroscopicity by weight gain over time (60 to 66% RH)
Format: physicochemical
SETUP CONDITIONS: 24 EC, 125 minutes
Below is a list of entries, each paired with its recorded weight increase rate (%) value.
# value in %; strip the unit string

> print(dat)
                                   compound  numeric.value
1  COC(=O)[C@H](C)N.Cl [L-Ala-OMe HCl salt, alanine methyl ester hydrochloride, reference compound]          14.74

Query: Using the record for CCOC(=O)[C@H](C)N.CS(=O)(=O)O [L-Ala-OEt MsOH salt, L-alanine ethyl ester methanesulfonate] , state its measured weight increase rate (%).
Response: 0.44

Query: Given CCOC(=O)[C@H](C)N.O=S(=O)(O)c1ccccc1 [L-Ala-OEt BsOH salt, L-alanine ethyl ester benzenesulfonate] , respond with its weight increase rate (%).
Response: 2.22

Query: Quick one: give measured weight increase rate (%) for CCOC(=O)[C@H](C)N.O=S(=O)(O)c1ccc(Cl)cc1 [L-Ala-OEt 4-CBS salt]
Response: 4.70
